experimentDescription: melting temperature; melt of duplexes
conditionParameters: sodium 0.0675 M; strand 1 µM
Label t when Tm is strictly below 50 °C; at or above that, label f.

Worked examples follow.
| substance | discreteLabel |
| --- | --- |
| CGACGTGCTGCATGTGCTG+CAGCACATACTGCACGTCG ((((((((.(.((((((((+)))))))).).)))))))) | f |
| CGACGTGCGCTATGTGCTG+CAGCACATCGCGCACGTCG ((((((((((.((((((((+)))))))).)))))))))) | f |
| CGACGTGCAGGATGTGCTG+CAGCACATCATGCACGTCG (((((((((.(((((((((+))))))))).))))))))) | f |
| CGACGTGCGCAATGTGCTG+CAGCACATTTGGCACGTCG ((((((((..(((((((((+)))))))))..)))))))) | f |
| CGACGTGCAAGATGTGCTG+CAGCACATATGGCACGTCG ((((((((.(.((((((((+)))))))).).)))))))) | f |

# TODO verify Tm < 50 °C strictly for this substance: CGACGTGCTTTATGTGCTG+CAGCACATGATGCACGTCG ((((((((.(.((((((((+)))))))).).))))))))
f

Find out if reported Tm for CGACGTGCTCCATGTGCTG+CAGCACATGAAGCACGTCG (((((((((.(((((((((+))))))))).))))))))) is less than 50 °C
f

Each recorded value in this set is attributed to the array DNA melting data of Ke et al..
